Test system: LOX IMVI melanoma
Test: NCI-60 one-dose screen, 48 h
Details: 10 µM
Compounds without any hit were thinned out: in the full panel of roughly 83,000, 20% have a hit. The source made the active and inactive calls. How the source made its calls: active means growth percent below 10; inactive means the rest.
Answer with one of the outcomes given here: Yes (active), No (inactive)

- compound: "CCCCCCCC(C)NCCO (configuration not stated)"
  group: "No"
- compound: "Cc1ccc2oc3nc(C)c(C(=O)NCc4ccccc4)cc3c(=O)c2c1"
  group: "No"
- compound: "CCCCCCCNc1nc(C=O)ncc1-c1ccc(C(F)(F)F)cc1"
  group: "No"

Qu. Write down the call the test reported for this compound. Item: `Nc1nccc(Nc2ccccc2)n1`
Ans. No

Qu. Write down the call the test reported for this compound. Item: `O=C(Nc1ccncc1)C(=O)c1cn(S(=O)(=O)c2cccc(Cl)c2)c2ccccc12`
Ans. No

Qu. Write down the call the test reported for this compound. Item: `O=C1/C(=C/c2ccc([N+](=O)[O-])s2)Oc2ccccc21`
Ans. Yes

Qu. Write down the call the test reported for this compound. Item: `CC(=O)O[C@]1(C)CC[C@H]2[C@H](CNCCc3ccc(Cl)cc3)C(=O)O[C@@H]2C2=C(C)C(=O)C[C@H]21`
Ans. No

Qu. Write down the call the test reported for this compound. Item: `COc1ccc2c(c1)nc(N)c1c3cccnc3cn21`
Ans. No

Qu. Write down the call the test reported for this compound. Item: `COc1ccc2c(c1)-c1c(c3cc(OC)ccc3n(CCN(C)C)c1=O)C2=O`
Ans. Yes

Qu. Write down the call the test reported for this compound. Item: CCCCCCCCCCCCC1C/C=C\CCCC(=O)O1 (configuration not stated)
Ans. No

###

Test system: SF-268 CNS
Assay: NCI-60 one-dose screen, 48 h (100 = growth as untreated, 0 = no growth, -100 = all killed)
Conditions: 10 µM
About 83,000 compounds went through this panel and 20% of them were active in at least one assay; those are over-represented in the sample as a whole.
Outcome label depends on growth relative to 80%: at/above gives T, below gives F.

Qu. Reported growth reaches at least 80% for `Cc1ncc(-c2ccoc2)c(NC2CCCCCC2)n1` ?
Ans. T

Qu. Reported growth reaches at least 80% for `CSc1nc(=O)n(Cc2ccc(F)cc2)c(=O)n1Cc1ccc(C)cc1` ?
Ans. T

Qu. Reported growth reaches at least 80% for O=C1C(c2ccccc2)C2C=CC(C2)N1O (stereo unspecified) ?
Ans. T

Qu. Reported growth reaches at least 80% for `O=C(Nc1cccc(-n2cc(-c3ccncc3)c(-c3cc(O)cc(Cl)c3)n2)c1)c1ccc(N2CCOCC2)c(C(F)(F)F)c1` ?
Ans. F

Qu. Reported growth reaches at least 80% for `Cc1ccc(NC(=O)NC2CCCCC2)cc1` ?
Ans. T

###

Test system: OVCAR-5 ovarian
Test: NCI-60 one-dose screen, 48 h
Conditions: 10 µM
Compounds without any hit were thinned out: in the full panel of roughly 83,000, 20% have a hit. Calls of active or inactive are those of the source. How the source made its calls: active means growth percent below 10; inactive means the rest.
Answer with one of the outcomes given here: active, inactive

- compound: "O=[N+]([O-])c1ccc(Oc2cccnc2)c([N+](=O)[O-])c1"
  group: "inactive"

Qu. Write down the call the test reported for this compound. Item: `N=C(N)c1ccc(-c2ccc(-c3ccccc3)o2)nc1`
Ans. inactive

Qu. Write down the call the test reported for this compound. Item: `O=C(Nc1cccc(-n2cc(-c3ccncc3)c(-c3cc(O)cc(Cl)c3)n2)c1)c1cc(C(F)(F)F)cc(C(F)(F)F)c1`
Ans. inactive

Qu. Write down the call the test reported for this compound. Item: `COc1ccc(-c2cc(/C=C3\C(=O)Nc4ccc(OC)cc43)[nH]n2)cc1`
Ans. inactive

Qu. Write down the call the test reported for this compound. Item: `CCCCOC(=O)Oc1ccc(C(=O)Oc2ccc(OCC)cc2)cc1`
Ans. inactive

Qu. Write down the call the test reported for this compound. Item: `O=C(Nc1ccccc1)Nc1cccc(-n2cc(-c3ccncc3)c(-c3ccc(O)c(Cl)c3)n2)c1`
Ans. inactive
